- Tested on: A Terreus 49
- Experimental protocol: MIC, YAG medium, A Terreus 49
- Assay type: cell-based, Aspergillus terreus
- Applied conditions: Aspergillus terreus; YAG medium; read-out: MIC A Terreus 49
Property name: MIC (ng/mL)

Compound: COc1cccc(NC(=O)C(=O)c2c(-c3ccccc3)cc3ccccn23)c1 [Example 138]
Assay target: A Terreus 49
Property name: MIC
Unit string: ng/mL
Value reported: 4

Compound: COc1ccc(NC(=O)C(=O)c2c(-c3cccs3)cc3ccccn23)cc1 [Example 148]
Assay target: A Terreus 49
Property name: MIC
Unit string: ng/mL
Value reported: 8

Compound: COc1ccc(NC(=O)C(=O)c2c(-c3cccc(Cl)c3)cc3ccccn23)cc1 [Example 235]
Assay target: A Terreus 49
Property name: MIC
Unit string: ng/mL
Value reported: 8

Compound: CCN(CC)c1ccc(NC(=O)C(=O)c2c(-c3ccccc3)cc3ccccn23)cc1C [Example 290]
Assay target: A Terreus 49
Property name: MIC
Unit string: ng/mL
Value reported: 3

Compound: O=C(Nc1ccccc1)C(=O)c1c(-c2ccccc2)cc2ccccn12 [Example 136]
Assay target: A Terreus 49
Property name: MIC
Unit string: ng/mL
Value reported: 4

Compound: O=C(Nc1ccc(N2CCCC2)cc1)C(=O)c1c(-c2ccccc2)cc2ccccn12 [Example 260]
Assay target: A Terreus 49
Property name: MIC
Unit string: ng/mL
Value reported: 8

Compound: Cc1ccccc1-c1cc2ccccn2c1C(=O)C(=O)Nc1ccc(OCC(F)(F)C(F)F)nc1 [Example 286]
Assay target: A Terreus 49
Property name: MIC
Unit string: ng/mL
Value reported: 15

Compound: COC(=O)C1CCCN1c1ccc(NC(=O)C(=O)c2c(-c3ccccc3)cc3ccccn23)cc1 (centres unmarked) [Example 275]
Assay target: A Terreus 49
Property name: MIC
Unit string: ng/mL
Value reported: 15

* * *

- Tested on: Candida glabrata
Property name: MIC

Compound: CN(C)c1ccc(NC(=O)C(=O)c2c(-c3ccccc3)cc3ccccn23)cc1C(=O)O
Value reported: > 50 µg/mL
//
Compound: O=C(Nc1ccc(Nc2ccccn2)cc1)C(=O)c1c(-c2ccccc2)cc2ccccn12
Value reported: 50 µg/mL
//
Compound: COC(=O)C1CCCN1c1ccc(NC(=O)C(=O)c2c(-c3ccccc3)cc3ccccn23)cc1 (stereo not drawn)
Value reported: > 50 µg/mL

* * *

- System: A Terreus 49
- Experimental protocol: MIC, YAG medium, A Terreus 49
- Type: cell-based, Aspergillus terreus
- Applied conditions: Aspergillus terreus; YAG medium; read-out: MIC A Terreus 49
// reported MIC per item

Molecule: O=C(Nc1ccc(-c2ncco2)cc1)C(=O)c1c(-c2ccccc2)cc2ccccn12 [Example 268]
Unit string: µg/mL
MIC: 0.015
//
Molecule: COc1ccc2cc(-c3ccccc3)c(C(=O)C(=O)Nc3ccc(C)cc3)n2c1 [Example 196]
Unit string: µg/mL
MIC: 0.062
//
Molecule: O=C(Nc1ccc(N2CCCCC2)cc1)C(=O)c1c(-c2ccccc2)cc2ccccn12 [Example 307]
Unit string: µg/mL
MIC: 0.001
//
Molecule: COc1ccc(NC(=O)C(=O)c2c(-c3ccc(C)cc3)cc3ccccn23)cc1 [Example 238]
Unit string: µg/mL
MIC: 0.008
//
Molecule: Cc1noc(C)c1-c1ccc(NC(=O)C(=O)c2c(-c3ccccc3)cc3ccccn23)cc1 [Example 287]
Unit string: µg/mL
MIC: 0.008
//
Molecule: O=C(Nc1ccc(Nc2nccs2)cc1)C(=O)c1c(-c2ccccc2)cc2ccccn12 [Example 285]
Unit string: µg/mL
MIC: 0.03
//
Molecule: Cc1ccccc1NC(=O)C(=O)c1c(-c2ccccc2)cc2ccccn12 [Example 202]
Unit string: µg/mL
MIC: 0.015
//
Molecule: N#Cc1cccc(-c2cc3ccccn3c2C(=O)C(=O)Nc2ccc(F)cc2F)c1 [Example 245]
Unit string: µg/mL
MIC: 0.8
//
Molecule: CC(=O)c1ccc(NC(=O)C(=O)c2c(-c3ccccc3)cc3ccccn23)cc1 [Example 205]
Unit string: µg/mL
MIC: 0.062
//
Molecule: C[S+]1CCN(c2ccc(NC(=O)C(=O)c3c(-c4ccccc4)cc4ccccn34)cc2)CC1.[I-] [Example 299]
Unit string: µg/mL
MIC: 1.6
//
Molecule: CC(C)c1ccc(NC(=O)C(=O)c2c(-c3ccccc3)cc3ccccn23)cc1 [Example 252]
Unit string: µg/mL
MIC: 0.002

* * *

- System: A Terreus 49
- Experimental protocol: MIC, YAG medium, A Terreus 49
- Assay type: cell-based, Aspergillus terreus
- Applied conditions: Aspergillus terreus; YAG medium; read-out: MIC A Terreus 49
Property name: log10 of MIC (log10 of the value in µg/mL)

Molecule: COc1ccc(NC(=O)C(=O)c2c(-c3cccc(C)c3)cc3ccccn23)cc1
Assay target: A Terreus 49
log10 of MIC: -2.40
--
Molecule: Cn1ccc2cc(NC(=O)C(=O)c3c(-c4ccccc4)cc4ccccn34)ccc21
Assay target: A Terreus 49
log10 of MIC: -3.00
--
Molecule: O=C(Nc1ccc(Nc2ccccn2)cc1)C(=O)c1c(-c2ccccc2)cc2ccccn12
Assay target: A Terreus 49
log10 of MIC: -0.92
--
Molecule: O=C1CCN(c2ccc(NC(=O)C(=O)c3c(-c4ccccc4)cc4ccccn34)cc2)CC1
Assay target: A Terreus 49
log10 of MIC: -0.92
--
Molecule: C=CCOc1cc(F)ccc1NC(=O)C(=O)c1c(-c2ccccc2)cc2ccccn12
Assay target: A Terreus 49
log10 of MIC: -0.70
--
Molecule: O=C(Nc1ccc(Br)cc1)C(=O)c1c(-c2ccccc2)cc2ccccn12
Assay target: A Terreus 49
log10 of MIC: -1.82
--
Molecule: CCOC(=O)C(C)(Cc1ccccc1)NC(=O)C(=O)c1c(-c2ccccc2)cc2ccccn12 (stereo not drawn)
Assay target: A Terreus 49
log10 of MIC: 0.20
--
Molecule: CCCOC(=O)c1ccc(NC(=O)C(=O)c2c(-c3ccccc3)cc3ccccn23)cc1
Assay target: A Terreus 49
log10 of MIC: -2.10
--
Molecule: Cc1ncccc1-c1cc2ccccn2c1C(=O)C(=O)Nc1ccc(OCC(F)(F)C(F)F)cc1
Assay target: A Terreus 49
log10 of MIC: -1.30
--
Molecule: COc1ccc(NC(=O)C(=O)c2c(-c3ccccc3)cc3ccccn23)cc1
Assay target: A Terreus 49
log10 of MIC: -2.70
--
Molecule: O=C(Nc1ccc(-c2cnco2)cc1)C(=O)c1c(-c2ccccc2)cc2ccccn12
Assay target: A Terreus 49
log10 of MIC: -1.82
--
Molecule: O=C(Nc1ccc(F)cc1F)C(=O)c1c(-c2ccc(F)cc2F)cc2ccccn12
Assay target: A Terreus 49
log10 of MIC: -1.22

* * *

- Tested on: A Terreus 49
- Experimental protocol: MIC, YAG medium, A Terreus 49
- Type: cell-based, Aspergillus terreus
- Applied conditions: Aspergillus terreus; YAG medium; read-out: MIC A Terreus 49
// reported MIC per item

Item smiles: COc1ccc(NC(=O)C(=O)c2c(-c3cccs3)cc3ccccn23)cn1
MIC: 0.062 µg/mL
--
Item smiles: CN(C)Cc1ccc(NC(=O)C(=O)c2c(-c3ccccc3)cc3ccccn23)cc1
MIC: 12.5 µg/mL
--
Item smiles: O=C(Nc1ccc(F)cc1F)C(=O)c1c(-c2ccccc2Cl)cc2ccccn12
MIC: 0.2 µg/mL
